Property: Activity; scope: individual molecules
System: Mus musculus
Assay: Analgesic activity in Wister albino mice at 20 mg/kg, po after 30 mins by tail-flick test

Below are worked cases with known answers.
# smiles notation, Activity
records = [
    ("O=c1[nH]cnc2nc3[nH]c(=S)[nH]c(=O)c3c(-c3ccc(N4CCCCC4)cc3)c12", "40%"),
    ("CN1CCN(c2ccc(-c3c4c(N)ncnc4nc4[nH]c(=S)[nH]c(=O)c34)cc2)CC1", "50%"),
    ("O=c1[nH]cnc2nc3[nH]c(=S)[nH]c(=O)c3c(-c3ccc(N4CCOCC4)cc3)c12", "44%"),
    ("Nc1nc(=S)[nH]c2nc3[nH]c(=S)[nH]c(=O)c3c(-c3ccc(N4CCOCC4)cc3)c12", "48%"),
    ("N#Cc1c(N)nc2[nH]c(=S)[nH]c(=O)c2c1-c1ccc(N2CCOCC2)cc1", "59%"),
]

Now for a further molecule.
Incoming: Name the reported Activity value associated with the molecule `Nc1ncnc2nc3[nH]c(=S)[nH]c(=O)c3c(-c3ccc(N4CCOCC4)cc3)c12`
Outgoing: 55%

* * *

Property: Activity; scope: individual compounds
Test system: Rattus norvegicus
Test: Antiinflammatory activity in rat assessed as inhibition of carrageenan-induced paw oedema at 10 mg/kg, po after 2 hrs
Type: functional
Design: scale not given: the % may be the effect or the level left
Value expressed in %; do not type the unit.

Below are worked cases with known answers.
# compound, value units, Activity
rows = [
    ("CN1CCN(c2ccc(-c3c(C#N)c(N)nc4[nH]c(=S)[nH]c(=O)c34)cc2)CC1", "%", 46),
    ("N#Cc1c(N)nc2[nH]c(=S)[nH]c(=O)c2c1-c1ccc(N2CCCCC2)cc1", "%", 45),
    ("CN1CCN(c2ccc(-c3c4c(=O)[nH]c(=S)[nH]c4nc4[nH]c(=S)sc(=N)c34)cc2)CC1", "%", 37),
    ("CN1CCN(c2ccc(-c3c4c(N)ncnc4nc4[nH]c(=S)[nH]c(=O)c34)cc2)CC1", "%", 38),
    ("Cc1nc2nc3[nH]c(=S)[nH]c(=O)c3c(-c3ccc(N4CCCCC4)cc3)c2c(=O)[nH]1", "%", 34),
]

Incoming: Name the reported Activity value associated with the compound `N#Cc1c(N)nc2[nH]c(=S)[nH]c(=O)c2c1-c1ccc(N2CCOCC2)cc1`
Outgoing: 50

Incoming: Quick one: O=C([O-])Cc1ccccc1Nc1c(Cl)cccc1Cl.[Na+] [DICLOFENAC SODIUM]
Outgoing: 39

Incoming: Quick one: `Nc1nc(=O)[nH]c2nc3[nH]c(=S)[nH]c(=O)c3c(-c3ccc(N4CCCCC4)cc3)c12`
Outgoing: 43

Incoming: Quick one: `Nc1nc(=S)[nH]c2nc3[nH]c(=S)[nH]c(=O)c3c(-c3ccc(N4CCOCC4)cc3)c12`
Outgoing: 43

Incoming: Quick one: `O=c1[nH]cnc2nc3[nH]c(=S)[nH]c(=O)c3c(-c3ccc(N4CCOCC4)cc3)c12`
Outgoing: 38

* * *

Test system: Rattus norvegicus
Test: Antiinflammatory activity in rat assessed as inhibition of carrageenan-induced paw oedema at 10 mg/kg, po after 1 hr
Type: functional
Parameters: scale not given: the % may be the effect or the level left
Property: Activity; scope: individual compounds
Value expressed in %; do not type the unit.

Below are worked cases with known answers.
# compound, Activity (%)
records = [
    ("CN1CCN(c2ccc(-c3c4c(N)ncnc4nc4[nH]c(=S)[nH]c(=O)c34)cc2)CC1", 37),
    ("O=C([O-])Cc1ccccc1Nc1c(Cl)cccc1Cl.[Na+] [DICLOFENAC SODIUM]", 38),
    ("Nc1nc(=O)[nH]c2nc3[nH]c(=S)[nH]c(=O)c3c(-c3ccc(N4CCCCC4)cc3)c12", 39),
    ("Nc1ncnc2nc3[nH]c(=S)[nH]c(=O)c3c(-c3ccc(N4CCCCC4)cc3)c12", 39),
]

Incoming: Find Activity (Rattus norvegicus) for the entry `Nc1ncnc2nc3[nH]c(=S)[nH]c(=O)c3c(-c3ccc(N4CCOCC4)cc3)c12`
Outgoing: 40
